System: HL-60
Experiment: Anticancer activity against human HL-60 cells assessed as inhibition of cell growth measured after 24 hrs by CCK-8 assay
Type: functional, cell-based
Settings: HL-60, 24 h
metric.name: pIC50
Scale note: pIC50 = -log10(concentration in M).

Ask: Could you tell me which pIC50 is on file for CC(C)=CCC/C(C)=C/COc1ccc(C[C@@H]2NC(=O)[C@H](C)NC2=O)cc1 ?
Result: 5.76

---

The reader will find reported EC50 values listed item by item below.
Test system: P388
Assay: Cytotoxicity against mouse P388 cells
Type: functional
Settings: read-out: ED50 (the source's name)
Answer with a number only, understood to be in ng/mL.

CS[C@@]1(C(C)C)C(=O)N2C(=CC3(C45c6ccccc6N[C@H]4N4C(=O)[C@H](CO)N(C)C(=O)[C@@]4(O)[C@H]5O)c4ccccc4N[C@H]23)C(=O)N1C (stereo not given in full)
14800
CSS[C@@]1(C(C)C)C(=O)N2C(=CC3(C45c6ccccc6N[C@H]4N4C(=O)[C@H](CO)N(C)C(=O)[C@@]4(O)[C@H]5O)c4ccccc4N[C@H]23)C(=O)N1C (stereo not given in full)
1100
CC(C)[C@]12SSS[C@]3(C(=O)N1C)[C@@H](O)C1(C45c6ccccc6N[C@H]4N4C(=O)[C@@]6(CO)SS[C@]4(C(=O)N6C)[C@H]5O)c4ccccc4N[C@@H]1N3C2=O (stereo not given in full)
4.4
CC(C)[C@]12SSSS[C@]3(C(=O)N1C)[C@@H](O)C1(C45c6ccccc6N[C@H]4N4C(=O)[C@@]6(C(C)C)SS[C@]4(C(=O)N6C)[C@H]5O)c4ccccc4N[C@@H]1N3C2=O (stereo not given in full)
2.1

Could you now look at the following compound, please?
Ask: Please give the measured EC50 for this compound: CC(C)[C@]12SSSS[C@]3(C(=O)N1C)[C@@H](O)C1(C45c6ccccc6N[C@H]4N4C(=O)[C@@]6(CO)SS[C@]4(C(=O)N6C)[C@H]5O)c4ccccc4N[C@@H]1N3C2=O (stereo not given in full)
Result: 3
